Cited source for all entries: PubChem BioAssay AID1068

tested.target: Ubiquitin carboxyl-terminal hydrolase BAP1 (Homo sapiens)
assay.procedure: BAP1 inhibitor potency with two substrates, dose response, biochemical, Ub-AMC versus Ub-rhodamine substrates (AID 1068)
cond: recombinant BAP1, Ub-rhodamine hydrolysis fluorescence; measured here: Ub-AMC substrate assay
endpoint.label: pIC50
A value of pIC50 is the negative decimal logarithm of a concentration given in moles per litre.

-- ask Form field: pIC50 recorded for Cc1cccc2cc(C(c3nnnn3C(C)(C)C)N3CCN(C(=O)c4ccco4)CC3)c(=O)[nH]c12 (centres undefined) with Ubiquitin carboxyl-terminal hydrolase BAP1 (Homo sapiens) (enter value)
-- reply 4.25

-- ask Subsequent entry: O=C(NCc1cccs1)c1cc2nc(-c3ccc4c(c3)OCO4)cc(C(F)(F)F)n2n1
-- reply 4.35

-- ask Subsequent entry: Cc1sc(NC(=O)CSc2n[nH]c(-c3ccc(O)cc3)n2)c(C#N)c1-c1ccc(F)cc1
-- reply 4.81

-- ask Subsequent entry: Cc1cccc2cc(C(c3nn[nH]n3)N3CCN(C(=O)OC(C)(C)C)CC3)c(=O)[nH]c12 (centres undefined)
-- reply 4.41

-- ask Subsequent entry: COc1cccc(NC(=O)c2ccccc2-c2nc(-c3cccc(Cl)c3)no2)c1
-- reply 4.43

-- ask Subsequent entry: Cc1ccc(-c2c(C)sc(NC(=O)CSc3nnc(-c4ccccc4)o3)c2C#N)cc1C
-- reply 4.16

-- ask Subsequent entry: COc1cc(-c2nnc(SCC(=O)Nc3sc(C)c(C)c3C#N)o2)cc(OC)c1OC
-- reply 5.63
